measurement-target: T1, human CD20 (human, UniProt P11836 1-297)
T1 construct: whole, on cells; On Ramos or Raji B cells (natural) or on transfected CHO-K1 cells, as said under assay or readout; also called CD20 on Ramos cells; CD20 on Raji cells
T1 sequence (looked up): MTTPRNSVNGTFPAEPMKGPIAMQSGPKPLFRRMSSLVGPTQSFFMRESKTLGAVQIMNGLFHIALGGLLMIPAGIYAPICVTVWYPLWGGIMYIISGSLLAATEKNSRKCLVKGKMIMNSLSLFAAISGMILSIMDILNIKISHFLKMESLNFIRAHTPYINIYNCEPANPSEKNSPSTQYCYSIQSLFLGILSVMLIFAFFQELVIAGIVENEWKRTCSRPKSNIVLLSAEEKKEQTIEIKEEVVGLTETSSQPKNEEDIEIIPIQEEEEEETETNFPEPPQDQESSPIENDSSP
assay-procedure: flow cytometry on human CD20 positive Ramos cells
Can you tell me EC50 for the items I'm about to list?
Give bare numbers, in nM.

T017000053 (bispecific antibody, Bispecific Nanobody construct with tags, expressed in Pichia; also called 20CD019C07-35GS-T0170060E11-FLAG3-HIS6; CD20xCD3 (cluster B)) EVQLVESGGGLVQPGGSLRLSCTFSGGTFSSYTMGWFRQAPGKEREFVAEVRWGGVTTYSNSLKDRFSISEDSVKNAVYLQMNSLKPEDTAVYYCAAVRQMYMTVVPDYWGQGTLVTVSSGGGGSGGGGSGGGGSGGGGSGGGGSGGGGSGGGGSEVQLVESGGGLVQPGGSLRLSCAASGDIYKSFDMGWYRQAPGKQRDLVAVIGSRGNNRGRTNYADSVKGRFTISRDGTGNTVYLLMNKLRPEDTAIYYCNTAPLVAGRPWGRGTLVTVSSGAADYKDHDGDYKDHDIDYKDDDDKGAAHHHHHH	1.8

Here is another binder to look at.
### Prompt Would you kindly share the measured EC50 for T017000062 (bispecific antibody, Bispecific Nanobody construct with tags, expressed in Pichia; also called 20CD019C07-35GS-T0170117G03-FLAG3-HIS6; CD20xCD3 (cluster A)) EVQLVESGGGLVQPGGSLRLSCTFSGGTFSSYTMGWFRQAPGKEREFVAEVRWGGVTTYSNSLKDRFSISEDSVKNAVYLQMNSLKPEDTAVYYCAAVRQMYMTVVPDYWGQGTLVTVSSGGGGSGGGGSGGGGSGGGGSGGGGSGGGGSGGGGSEVQLVESGGGPVQAGGSLRLSCAASGRTYRGYSMGWFRQAPGKEREFVAAIVWSGGNTYYEDSVKGRFTISRDNAKNTMYLQMTSLKPEDSATYYCAAKIRPYIFKIAGQYDYWGQGTLVTVSSGAADYKDHDGDYKDHDIDYKDDDDKGAAHHHHHH ?
### Response 1.9

Cited source for all entries: patent US20250388672A1
